# Protocol Conditions: a range is the spread between reports
Readout Label: melting point

Answered cases to consult:
Compound	melting point
C=Cc1ccc(C(=O)O)cc1	142 to 144 °C
c1ccc2c(c1)CCC2	-51.4 to -51 °C
Cc1ccc(C)cc1	12 to 13.2 °C
Cc1cccc(O)c1	11 to 12 °C
C1CO1	-112 to -111 °C
CCn1ccc(NS(=O)(=O)c2ccc(N)cc2)nc1=O	166 to 167 °C
c1ccc([Si](c2ccccc2)(c2ccccc2)c2ccccc2)cc1	236 to 237 °C
Cc1cc(-c2ccc(N)c(C)c2)ccc1N	130 to 132 °C

## Task Data request, read-out melting point, for CCCCCCCCCCCC(=O)CCCCCCCCCCC
## Result 67 to 70.2 °C

## Task What do we get for CCCCCCCCCCCC(=O)O ?
## Result 43.2 to 45 °C

## Task What do we get for O=C(Cl)c1ccc(Br)cc1 ?
## Result 40 to 42 °C

## Task What do we get for CCCCCCCCCCCCCCCCBr ?
## Result 17 to 18 °C

## Task What do we get for ClCCBr ?
## Result -18 to -16.7 °C

## Task What do we get for OC(c1ccccc1)c1ccccc1 ?
## Result 66 to 69 °C

## Task What do we get for O=C(O)c1ccc(C(F)(F)F)cc1 ?
## Result 220 to 221 °C

## Task What do we get for COc1ccc(C(=O)OC(=O)c2ccc(OC)cc2)cc1 ?
## Result 94.5 to 97 °C

## Task What do we get for O=C(O)c1cc(-c2ccc(F)cc2F)ccc1O ?
## Result 210 to 216 °C

## Task What do we get for Nc1cccc(Br)c1 ?
## Result 16 to 18.5 °C

## Task What do we get for Clc1ccc(Br)cc1 ?
## Result 65 to 68 °C

## Task What do we get for O=C(C(F)(F)F)C(F)(F)F ?
## Result -129 to -125 °C

## Task What do we get for CCCCCCCC#N ?
## Result -46 to -45 °C

## Task What do we get for C=Cc1ccc(Br)cc1 ?
## Result 5 to 7.7 °C

## Task What do we get for CCC(C(=O)O)C(=O)O ?
## Result 113 to 114 °C

## Task What do we get for CCCCCCC(=O)OCC ?
## Result -66.1 to -66 °C

## Task What do we get for CCCCCCCCCCN ?
## Result 13 to 17 °C
